Molecular target: T1, Roquin-1 zinc finger (Znf, CCCH) (UniProt Q4VGL6 411-454)
T1 chain: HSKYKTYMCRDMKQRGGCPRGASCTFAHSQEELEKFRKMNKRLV
Experiment: ITC; Zn2+; n=1.0; ITC at room temperature, RNA titrated into 10-40 uM protein; buffer 20 mM Tris pH 7.0, 150 mM NaCl, 25 uM ZnCl2, 2 mM TCEP, 0.02% azide (stated for Znf); NMR HSQC 50 uM protein, RT, 10% D2O
Conditions: protein: recombinant; tags: His6-GST removed by TEV; chain copies: 2; single-stranded
READOUT: Kd (µM)
The response must be a number in µM with no trailing unit.

Could you share which Kd value was measured for UUUUAACAU (ssRNA) [LBE 5'-half 9-mer] ?
35.6
